- System: T-47D breast
- test.protocol: NCI tumour cell line growth inhibition, 48 h
measure: TGI (µM)
Response body: numeric value in µM, unit text excluded.

O=C(O)c1c(Cl)c(Cl)c(Cl)c(Cl)c1-c1c2cc(I)c(=O)c(I)c-2oc2c(I)c(O)c(I)cc12 | 78.2

Proceeding to the next molecule to report its TGI.
Specify measured TGI for O=C(Nc1ccc(-c2nc3ccc(NC(=O)c4ccc(Cl)cc4)cc3[nH]2)cc1)c1ccc(Cl)cc1 . 5.01

* * *

- System: M14 melanoma
- test.protocol: NCI tumour cell line growth inhibition, 48 h; in the data active = GI50 below about 0.43 µM; inactive = the rest
Entry note: the call must match one of active, inactive

Worked examples follow.
O=C(O)CCN1C(=O)/C(=C/C(Cl)=C/c2ccccc2)SC1=S | inactive
CN1C=CN(Cc2ccc(-c3ccccn3)nc2)[CH-]1.CN1C=CN(Cc2ccc(-c3ccccn3)nc2)[CH-]1.[Au+3] | inactive
CC1=CC(=O)c2[nH]c3ccccc3c2C1=O | inactive

# lookup: test call for O=C(N/N=C\c1cc(Cl)ccc1O)N/N=C/c1cc(Cl)ccc1O inactive

# lookup: test call for CCn1cc(C2NC(=O)c3cc(F)ccc3N2)c2cccc(Cl)c21 (stereo unspecified) active

# lookup: test call for Cc1cc(C#Cc2ccccc2)ccc1-n1c(/C=C/c2ccc(O)cc2)nc2ccccc2c1=O inactive

# lookup: test call for COc1cc([N+](=O)[O-])c2ncccc2c1O inactive

# lookup: test call for CCc1ccc(/C=C2/SC(=S)NC2=O)cc1 inactive

# lookup: test call for CCNC1=CC(=O)c2ncccc2C1=O inactive

# lookup: test call for Nc1ccccc1C#Cc1ccccc1C#CCCCCO inactive

# lookup: test call for O=C(O)C(O)C(O)C1[O][Sb][O]C1CO (stereo unspecified) inactive
